// reported GI50 for each item listed
- Tested on: MDA-MB-231 breast
- test_method_notes: NCI tumour cell line growth inhibition, 48 h

Completed entries (count: 4):
compound	GI50
COC(=O)C1=C(C)NC(C)=C(C(=O)OCC(C)C)C1c1ccccc1[N+](=O)[O-] (stereo not given)	4.04 µM
O=C(Nc1ccc(Oc2cccc(F)c2)c(Cl)c1)c1cnccn1	3.28 µM
C=C1CC[C@@H]2[C@](C)(COC(C)=O)[C@H](OC(C)=O)CC[C@@]2(C)[C@@H]1CC(Nc1ccc(S(=O)(=O)Nc2ccc(Cl)nn2)cc1)C1=CCOC1=O (stereo not given in full)	1.9 µM
COc1cc(OC)c(C(=O)/C=C/c2cccc(C#N)c2)c(OC)c1	2 µM

# lookup: GI50 of Nc1c(C(=O)c2cccc(C#CCO)c2)cnn1-c1ccc(F)cc1 > 25 µM

---

- System: SNB-75 CNS
- test_method_notes: NCI tumour cell line growth inhibition, 48 h
property_measured: TGI (µM)
Give just the number in µM; leave the unit off.

Completed entries (count: 3):
molecule	TGI / µM
Cc1[nH]c(=O)nc(Nc2ccc(Cl)cc2)c1C(=O)N1CCN(CCO)CC1	52.3
Cc1nn(-c2ccc(Cl)cc2)c2nc3c(nc12)C(=O)C(=O)c1ccccc1-3	4.3
O=C1c2ccc3c4c(ccc(c24)C(=O)N1CCCNCc1ccccc1Cl)C(=O)N(CCCNCc1ccccc1Cl)C3=O	1.47

Hello, I am looking for reported TGI with SNB-75 CNS for COc1cccc(-c2cc3c4c(nc5ccccc53)C(=O)c3cccnc3-c4n2)c1 . Could you help? 5.71

---

// reported TGI for each item listed
- Test system: PC-3 prostate
- test_method_notes: NCI tumour cell line growth inhibition, 48 h
Give just the number in µM; leave the unit off.

Completed entries (count: 2):
molecule	property_measured	experimental_value
COc1cc(OC)c(C(=O)/C=C/c2cccc(C#N)c2)c(OC)c1	TGI	8.26
COC(=O)C12OC3CO[Si](C(C)C)(C(C)C)O[Si](C(C)C)(C(C)C)OC3C1Oc1nc(=O)ccn12 (stereo not drawn)	TGI	29.2

// next item, TGI requested
# lookup: TGI of COc1ccc(/C=C(\C(=O)NCc2cccnc2)S(=O)(=O)c2ccccc2)cc1OC 14.5

---

// reported GI50 for each item listed
- Tested on: HT29 colon
- test_method_notes: NCI tumour cell line growth inhibition, 48 h

Completed entries (count: 5):
molecule	property_measured	experimental_value
CC[C@H](CO)Nc1nc(NCc2ccccc2)c2ncn(C(C)C)c2n1	GI50	24.3 µM
CC(=O)[CH-]C(=O)c1ccccc1.CC(=O)[CH-]C(=O)c1ccccc1.CC(=O)[CH-]C(=O)c1ccccc1.[In+3]	GI50	31.9 µM
Cc1cn2c(/C=C3/C(=O)Nc4ccc(O)cc43)c(C)nc2s1	GI50	2.47 µM
COc1cc([N+](=O)[O-])c(OC)cc1-c1nc2sccn2c1/C=N/N=C(N)N	GI50	82.1 µM
CC(=O)O[C@H]1CCC2[C@@H]3CCC4c5nonc5CC[C@]4(C)C3CC[C@@]21C (stereo not given in full)	GI50	> 100 µM

Hello, I am looking for reported GI50 with HT29 colon for COc1ccccc1CNCCCN1C(=O)c2ccc3c4c(ccc(c24)C1=O)C(=O)N(CCCN)C3=O . Could you help? 1.42 µM

Hello, I am looking for reported GI50 with HT29 colon for COc1cc(OC)c(C(=O)/C=C/c2cccc(C#N)c2)c(OC)c1 . Could you help? 1.69 µM

Hello, I am looking for reported GI50 with HT29 colon for Nc1c(C(=O)c2cccc(-c3cccnc3)c2)cnn1-c1ccc(F)cc1F . Could you help? 1.05 µM

Hello, I am looking for reported GI50 with HT29 colon for Cc1ccc(-c2nc3nc(-c4ccccc4)nc(N4CCNCC4)c3o2)cc1 . Could you help? 0.242 µM

Hello, I am looking for reported GI50 with HT29 colon for CCc1ccc2c(c1)C(=O)c1c-2n(CCCN=[N+]=[N-])c(=O)c2cc(OC)c(OC)cc12 . Could you help? > 100 µM

---

- Tested on: LOX IMVI melanoma
- test_method_notes: NCI tumour cell line growth inhibition, 48 h
Tick TRUE if TGI is 20 µM or greater. Tick FALSE if TGI is less than 20 µM.

Does c1ccc([I+]c2ccccc2)cc1 have a reported TGI of at least 20 µM? TRUE

Does CC1=C(CCC(C)NCc2ccc(OCCCN3CCCCC3)cc2)C(C)(C)CCC1 (stereo not given) have a reported TGI of at least 20 µM? FALSE

Does COc1cc2c(c(OC)c1OC)-c1ccc(SC)cc1C(O)CC2 (stereo not given) have a reported TGI of at least 20 µM? TRUE

Does c1ccc2c(c1)OC(N1CCCC1)c1cnc(N3CCOCC3)nc1-2 (stereo not given) have a reported TGI of at least 20 µM? TRUE

---

// reported TGI for each item listed
- Test system: SN12C renal
- test_method_notes: NCI tumour cell line growth inhibition, 48 h

compound	TGI
CN1CCc2[nH]nc(-c3n[nH]c4c3CN(C)CC4)c2C1	> 100 µM
O=C1c2ccc3c4c(ccc(c24)C(=O)N1CCCNCc1ccccc1Cl)C(=O)N(CCCNCc1ccccc1Cl)C3=O	0.206 µM

# lookup: TGI of O=C(NNC(=O)c1csc(NC(=S)NC2CCCCC2)n1)c1ccccc1 22.5 µM

# lookup: TGI of CCc1ccc2c(c1)C(=O)c1c-2n(CCCN=[N+]=[N-])c(=O)c2cc(OC)c(OC)cc12 > 100 µM

# lookup: TGI of O=[N+]([O-])c1ccc(NNN=Nc2ccc(-c3nc4ccccc4s3)cc2)c([N+](=O)[O-])c1 50.8 µM

# lookup: TGI of CC(=O)[O][Sn]([CH2]c1ccccc1)([CH2]c1ccccc1)[CH2]c1ccccc1 > 10 µM

# lookup: TGI of O=C(O)C(CS)NCc1c2ccccc2nc2ccccc12 (stereo unspecified) > 100 µM

---

- Tested on: UACC-257 melanoma
- test_method_notes: NCI tumour cell line growth inhibition, 48 h
// reported TGI for each item listed

compound	TGI
O=[N+]([O-])c1cc(Cl)cnc1Br	22.6 µM
Cc1[nH]c(=O)nc(Nc2ccc(Cl)cc2)c1C(=O)N1CCN(CCO)CC1	> 100 µM
CC(=O)Nc1cccc(N=NN(C)C)c1	> 100 µM
[O-]c1ccccc1/C=N/C(/N=C/c1ccccc1[O-])c1ccccc1O.[O-]c1ccccc1/C=N/C(/N=C/c1ccccc1[O-])c1ccccc1O.[Zr+4]	> 100 µM

# lookup: TGI of C=C1CC[C@@H]2[C@](C)(COC(C)=O)[C@H](OC(C)=O)CC[C@@]2(C)[C@@H]1CC(Nc1ccc(S(=O)(=O)Nc2ccc(Cl)nn2)cc1)C1=CCOC1=O (some centres not stated) 3.89 µM

# lookup: TGI of N#CNC(=NCCc1c[nH]c2ccccc12)Oc1ccccc1 > 100 µM

# lookup: TGI of CCc1ccc2c(c1)C(=O)c1c-2n(CCCN=[N+]=[N-])c(=O)c2cc(OC)c(OC)cc12 > 100 µM

# lookup: TGI of C[C@]12CC[C@@H]3c4ccc(O)cc4CC[C@H]3[C@@H]1Cc1cnc(N)nc12 74.1 µM

# lookup: TGI of O=c1c(O)c(-c2ccc(O)c(O)c2)oc2cc(O)cc(O)c12 > 100 µM

# lookup: TGI of Cc1ccc(-c2csc(NC(=O)N3CCN(c4cc5c(cc4F)c(=O)c(C(=O)O)cn5C4CC4)CC3)n2)cc1 6.58 µM

# lookup: TGI of CCc1cccc(C)c1NC(=O)C1=C(C)NC(C)=C(C(=O)Nc2c(C)cccc2CC)C1c1ccc2c(c1)OCO2 46.3 µM

# lookup: TGI of COC1=C(C)C(=O)c2c(cc3c(c2O)C(C)(CCC=C(C)C)C(C)O3)C1=O (configuration not stated) > 100 µM

---

- System: SK-MEL-28 melanoma
- test_method_notes: NCI tumour cell line growth inhibition, 48 h
// reported TGI for each item listed
Give just the number in µM; leave the unit off.

Completed entries (count: 4):
molecule	experimental_value
N#CSCc1ccc(Cl)c(CSC#N)c1	22.4
CCOc1ccc(N/C(=C(/C(Cl)=C(/Cl)NC(C)(C)C)[N+](=O)[O-])n2nnc3ccccc32)cc1	38.8
COc1cccc(-c2cc3c4c(nc5ccccc53)C(=O)c3cccnc3-c4n2)c1	22.3
COc1cc([N+](=O)[O-])c(OC)cc1-c1nc2sccn2c1/C=N/N=C(N)N	63.4

// next item, TGI requested
# lookup: TGI of Cc1ccc(-c2nc3nc(-c4ccccc4)nc(N4CCNCC4)c3o2)cc1 3.43

---

// reported GI50 for each item listed
- Tested on: DU-145 prostate
- test_method_notes: NCI tumour cell line growth inhibition, 48 h

compound	property_measured	experimental_value
Nc1ncnc2c1c(-c1ccc(Oc3ccccc3)cc1)nn2C[C@@H]1SSC[C@H]1O	GI50	2.26 µM
CCC[CH2][Sn]1([CH2]CCC)[O]C2C(CO)OC(n3ccc(N)nc3=O)C2[O]1 (centres undefined)	GI50	1.34 µM
COc1cc([N+](=O)[O-])c(OC)cc1-c1nc2sccn2c1/C=N/N=C(N)N	GI50	30.4 µM
CC(C)CCNCC(O)Cn1c2ccccc2c2ccccc21 (centres undefined)	GI50	14.6 µM
O=c1c(O)c(-c2ccc(O)c(O)c2)oc2cc(O)cc(O)c12	GI50	20 µM

# lookup: GI50 of Cc1cnc(CNC(=O)c2c(=O)c3ccc(N4CCCN(C)CC4)nc3n3c2sc2ccccc23)cn1 1.03 µM

# lookup: GI50 of COc1ccc(N(/C=C/C(=O)C(F)(F)F)CC(=O)c2ccc(F)cc2)cc1 36.2 µM
